What collision cross section was measured for each of the following?
Experiment: collision cross section of modified peptide (TIMS, N2, iRT-aligned); higher = larger / more extended gas-phase ion
Conditions: charge state: 2; modification: Glutarylation
± gives the standard deviation.

Q: Complete the entry with collision cross section for TEVLSPNSKVESK [_TEVLSPNSK(Gluratylation)VESK_]
Result: 408.15 ± 0.5 Å²

Q: Retrieve collision cross section measured for SSGPGGQNVNKVNSK [_SSGPGGQNVNK(Gluratylation)VNSK_] and print it.
Result: 409.46 ± 0.95 Å²

Q: Give collision cross section for the following sequence: TLQKQSVVYGGK [_TLQK(Gluratylation)QSVVYGGK_]
Result: 399.42 ± 0.6 Å²

Q: Quick one: give measured collision cross section for SLFFGGKGAPLQR [_SLFFGGK(Gluratylation)GAPLQR_]
Result: 407.53 ± 0.99 Å²

Q: Consider the sequence SITHSTVGSKGEK [_SITHSTVGSK(Gluratylation)GEK_] . State its measured collision cross section.
Result: 400.44 ± 2.1 Å²

###

For each record, write down the corresponding collision cross section.
Test: collision cross section of modified peptide (TIMS, N2, iRT-aligned); higher = larger / more extended gas-phase ion
Conditions: charge state: 2; modification: Malonyl
Enter your answer as a number in Å²; do not include the unit.

Q: Answer with the recorded collision cross section for the sequence listed here: SGKFTQQDIDEAK [_SGK(Malonyl)FTQQDIDEAK_]
Result: 410.91

Q: Provide measured collision cross section value, entry: DTPTSAGPNSFNKGK [_DTPTSAGPNSFNK(Malonyl)GK_]
Result: 408.63

Q: Please list collision cross section recorded for the sequence AGPNASIISLKSDK [_AGPNASIISLK(Malonyl)SDK_]
Result: 411.98

Q: For the sequence VFSIISSEKELK [_VFSIISSEK(Malonyl)ELK_] , give its reported collision cross section.
Result: 409.68

Q: Assign collision cross section to the following record: TLQKQSVVYGGK [_TLQK(Malonyl)QSVVYGGK_]
Result: 395.45

Q: Determine from records and report collision cross section for SKLLFSNTAAQK [_SK(Malonyl)LLFSNTAAQK_]
Result: 394.73

Q: Kindly indicate its recorded collision cross section. Item: INNFSADIKDSK [_INNFSADIK(Malonyl)DSK_]
Result: 398.58

Q: # return recorded collision cross section for input PSVGSQSNQAGQGKR [_PSVGSQSNQAGQGK(Malonyl)R_]
Result: 406.87

Q: Quickly give me recorded collision cross section for LEKTIDDLEEK [_LEK(Malonyl)TIDDLEEK_]
Result: 405.85

Q: Give the reported value of collision cross section for this record: DVNAAIAAIKTK [_DVNAAIAAIK(Malonyl)TK_]
Result: 406.2

Q: Supply measured collision cross section of KYEEIDNAPEER [_K(Malonyl)YEEIDNAPEER_] in your reply.
Result: 410.49

###

Assay: collision cross section of modified peptide (TIMS, N2, iRT-aligned); higher = larger / more extended gas-phase ion
Conditions: charge state: 3; modification: GlyGly (K)
recorded-endpoint: collision cross section (Å²)
// return numeric value only (unit: Å², not printed)

Q: Please list collision cross section recorded for the sequence VTLEVGKVIQQGR [_VTLEVGK(GlyGly (K))VIQQGR_]
Result: 486.06

Q: Give the value of collision cross section reported for the following: GTITVSAQELKDNR [_GTITVSAQELK(GlyGly (K))DNR_]
Result: 487.43

Q: Retrieve collision cross section measured for LLFSNTAAQKLR [_LLFSNTAAQK(GlyGly (K))LR_] and print it.
Result: 492.29

Q: Using the record for YEEIVKEVSTYIK [_YEEIVK(GlyGly (K))EVSTYIK_] , state its measured collision cross section.
Result: 512.47

Q: Please supply the value of reported collision cross section for the item ASDTSSETVFGKR [_ASDTSSETVFGK(GlyGly (K))R_]
Result: 487.28

Q: Fill in reported collision cross section for this entry: VFSIISSEKELK [_VFSIISSEK(GlyGly (K))ELK_]
Result: 493.89

Q: Given DKALPLEAEVAPVK [_DK(GlyGly (K))ALPLEAEVAPVK_] , respond with its collision cross section.
Result: 511.69

Q: Name the recorded collision cross section of the item VDIDVPDVNIEGPDAKLK [_VDIDVPDVNIEGPDAK(GlyGly (K))LK_] in your answer.
Result: 504.15

Q: Please report the measured collision cross section for ANEKTESSSAQQVAVSR [_ANEK(GlyGly (K))TESSSAQQVAVSR_]
Result: 498.93

Q: Name the recorded collision cross section of the item DSSPTTNSKLSALQR [_DSSPTTNSK(GlyGly (K))LSALQR_] in your answer.
Result: 501.52

Q: In one line, give reported collision cross section of the entry TQAYQDQKPGTSGLR [_TQAYQDQK(GlyGly (K))PGTSGLR_] .
Result: 500.32

Q: State its collision cross section for this sequence: DASTLQSQKAEGTGDAK [_DASTLQSQK(GlyGly (K))AEGTGDAK_]
Result: 505.67

Q: For the sequence ANLEKAQAELVGTADEATR [_ANLEK(GlyGly (K))AQAELVGTADEATR_] , give its measured collision cross section value.
Result: 513.9

Q: Report measured collision cross section; entry is AGQKLIDVNHYAK [_AGQK(GlyGly (K))LIDVNHYAK_]
Result: 485.98

Q: Output measured collision cross section for this item: ATVASSTQKFQDLGVK [_ATVASSTQK(GlyGly (K))FQDLGVK_]
Result: 500.25

Q: Please give the documented collision cross section of DESFLGKLGGTLAR [_DESFLGK(GlyGly (K))LGGTLAR_]
Result: 486.51

The reported numbers originate from the supplement of paper PMC10598134.
